- SYSTEM_TESTED: aggrecanase-1 (Homo sapiens)
- Sequence (O75173 213-837, species assumed): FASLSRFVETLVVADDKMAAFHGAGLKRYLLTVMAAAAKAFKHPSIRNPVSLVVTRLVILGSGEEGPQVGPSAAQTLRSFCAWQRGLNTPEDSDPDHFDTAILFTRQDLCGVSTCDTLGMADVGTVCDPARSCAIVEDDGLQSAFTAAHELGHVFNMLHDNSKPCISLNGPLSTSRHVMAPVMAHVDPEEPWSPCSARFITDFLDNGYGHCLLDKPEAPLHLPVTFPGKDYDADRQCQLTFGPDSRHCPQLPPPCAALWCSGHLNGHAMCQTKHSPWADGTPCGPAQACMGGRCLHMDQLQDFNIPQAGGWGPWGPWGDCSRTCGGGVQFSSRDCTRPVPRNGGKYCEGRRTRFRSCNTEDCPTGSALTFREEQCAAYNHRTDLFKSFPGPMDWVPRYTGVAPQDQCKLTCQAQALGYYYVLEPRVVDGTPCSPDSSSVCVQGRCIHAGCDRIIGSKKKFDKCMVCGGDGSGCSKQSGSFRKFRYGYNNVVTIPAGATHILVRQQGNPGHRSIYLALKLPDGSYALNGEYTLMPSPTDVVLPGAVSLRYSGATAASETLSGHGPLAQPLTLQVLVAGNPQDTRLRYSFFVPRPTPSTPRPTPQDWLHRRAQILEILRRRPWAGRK
- ASSAY_EXPLANATION: Aggrecanase-1 inhibitory action (Particle Assay, GAG release from aggrecan-containing polyacrylamide particles)
- Format: biochemical
- ASSAY_CONDITIONS: aggrecanase-1 inhibitory action; read-out: IC50 AG1 (Experimental Example 1)
pIC50: −log10 of the molar value.
REPORTED_PROPERTY: pIC50

Report measured pIC50; entry is Cc1ncc(-c2ccc(S(=O)(=O)N[C@@]3(C(=O)O)C[C@@H]3c3ccccc3)s2)s1 [Example 2-55] ≤ 6.00

Report measured pIC50; entry is O=C(O)C1(NS(=O)(=O)c2ccc3c(c2)Cc2cc(Cl)ccc2-3)CC1c1ccccc1 (stereo not drawn) [Example 1-94] > 7.00

Report measured pIC50; entry is COc1ccccc1C1CC1(NS(=O)(=O)c1ccc(-c2ccc(Cl)cc2)s1)C(=O)O (stereo not drawn) [Example 1-4] > 7.00

Report measured pIC50; entry is CC1(C)COC(c2ccccc2C2CC2(NS(=O)(=O)c2ccc(-c3ccc(Cl)cc3)s2)C(=O)O)=N1 (stereo not drawn) [Example 2-77] > 7.00

Report measured pIC50; entry is O=C(O)[C@]1(NS(=O)(=O)c2cnc(-c3ccc(Cl)cc3)s2)C[C@@H]1c1ccccc1 [Example 1-100] > 6.00

Report measured pIC50; entry is CS(=O)(=O)Nc1cccc(C2CC2(NS(=O)(=O)c2ccc(-c3ccc(Cl)cc3)cc2)C(=O)O)c1 (stereo not drawn) [Example 1-38] > 7.00

Report measured pIC50; entry is O=C(NC1CCCC1)c1ccc(S(=O)(=O)NC2(C(=O)O)CC2c2ccccc2)s1 (stereo not drawn) [Example 2-95] ≤ 5.00

Report measured pIC50; entry is CC(C)C1CC1(NS(=O)(=O)c1ccc(-c2ccc(Cl)cc2)s1)C(=O)O (stereo not drawn) [Example 2-59] > 6.00

Report measured pIC50; entry is CN1CCN(c2ccc(C3CC3(NS(=O)(=O)c3ccc(-c4ccc(Cl)cc4)s3)C(=O)O)cc2)CC1 (stereo not drawn) [Example 2-247] ≤ 5.00

Measured values drawn from patent US20080261994A1 for this set.
